# Tested system: T1, NHERF2-1 (human, UniProt Q15599 11-90)
# T1 construct: PDZ domain number 1 of human NHERF2; also called NHERF2 PDZ dom 1; source: E. coli, in crude cell lysate; not shown: His, N-terminal, kept
# T1 sequence (Q15599 11-90): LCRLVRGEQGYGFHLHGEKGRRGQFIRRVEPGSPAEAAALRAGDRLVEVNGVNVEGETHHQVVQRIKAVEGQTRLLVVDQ
# Protocol: holdup assay; biotinylated PBM peptide saturating streptavidin resin (biotin resin as reference); tag-PDZ at 4 uM in crude E. coli lysate, 15 min, filtration, free tag-PDZ by capillary electrophoresis; singlicate; BI cut-off 0.20; BI converted into KD with the peptide concentration back-calculated from FP
# Assay conditions: one partner purified
Where no end group is shown, it is not given here. The star is where a group is joined. Biotin = O=C1N[C@H]2[C@H](CS[C@H]2CCCCC(=O)*)N1; TTDS = NCCCOCCOCCOCCCNC(=O)CCC(=O)*
The following binders are shown together with reported Kd values.
Numeric only. Scale: µM

binder="{Biotin-TTDS}-DEDQHTQITRV (peptide, UniProt P60484 393-403, looked up, also called K402R mutant; source: synthetic peptide (Chemical Peptide Synthesis Service of the IGBMC, Fmoc)) [PTEN_KR]" value_observed=120

Consider the record given below.
Ask: // returns reported Kd for input {Biotin-TTDS}-PFDEDQHTQITKV (peptide, UniProt P60484 391-403, looked up, also called 13-mer PTEN peptide; extended wild-type peptide; source: synthetic peptide, bought: JPT Innovative Peptide Solutions (70%-80% purity)) [PTEN_13]
Reply: 134
